These measurements were taken from PubChem BioAssay AID1159565.

# System: T. cruzi-infected H9C2 cardiomyocytes, high-content imaging
# Assay explanation: intracellular T. cruzi amastigote inhibition, imaging, H9C2 host cardiomyocytes, host toxicity (AID 1159565);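 note: infected cells incubated 72 h after plating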
# Measurement setup: measured here: H9C2 host cell toxicity
pIC50: −log10 of the molar value.
This listing pairs compounds with measured pIC50.
Metric name: pIC50

>  <Compound>
Cc1ccc(Nc2nc(C3CCCN3Cc3ccn[nH]3)cs2)nc1 (stereo not drawn)

>  <Data value>
5.00

$$$$
>  <Compound>
CC(c1ccc2c(c1)CCCC2)N(C)c1ncc2c(N)nc(N)nc2n1 (stereo not drawn)

>  <Data value>
5.00

$$$$
>  <Compound>
CCN(CC)c1nc(Nc2ccncc2)nc2ccccc12

>  <Data value>
5.10

$$$$
